Target: human HER2 Extracellular Domain (HER2 ECD) (human, UniProt P04626 23-652)
Experiment: ELISA, antigen coated, hybridoma supernatant
measurement-kind: binding result

anti-HER3 antibody M-17-02 (antibody, V domains shown, mouse hybridoma clone) VH: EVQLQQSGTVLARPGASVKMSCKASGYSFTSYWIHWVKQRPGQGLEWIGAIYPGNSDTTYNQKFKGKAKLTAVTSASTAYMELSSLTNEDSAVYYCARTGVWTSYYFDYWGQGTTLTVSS VL: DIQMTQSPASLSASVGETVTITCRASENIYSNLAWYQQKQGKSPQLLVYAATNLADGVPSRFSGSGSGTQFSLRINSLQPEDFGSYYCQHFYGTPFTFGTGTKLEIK :: no binding
anti-HER3 antibody M-46-01 (antibody, V domains shown, mouse hybridoma clone) VH: QIQLQQSGPQLVRPGASVKISCKASGYSFTSYWMHWVKQRPGRGLEWIGMIDPSDGVTRLNQKFKDKATLTVDNSSSTAYMQLSSPTSEDSAVHYCARVDVLYWYFDVWGAGTTVTVSS VL: DIVLTQSPASLAVSLGQRATISCRASKSISISGYSYMHWYQQKAGQPPKLLIYLTSNLESGVPARFSGSGSGTDFTLNIHPVEEEDAATYYCHHSRELPFTFGSGTKLEIK :: no binding
anti-HER3 antibody M-17-07 (antibody, V domains shown, mouse hybridoma clone) VH: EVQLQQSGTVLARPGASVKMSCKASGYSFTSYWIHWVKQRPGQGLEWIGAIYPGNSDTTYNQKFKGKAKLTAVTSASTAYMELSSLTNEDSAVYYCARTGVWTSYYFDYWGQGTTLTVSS VL: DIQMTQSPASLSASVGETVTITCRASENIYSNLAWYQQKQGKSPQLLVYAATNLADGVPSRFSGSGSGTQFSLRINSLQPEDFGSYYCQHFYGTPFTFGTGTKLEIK :: no binding
